Quick reference for IC50 among some compounds
test system: Human alphaherpesvirus 3; experiment: Inhibitory activity against varicella zoster virus (VZV) strain G31 in MRC-5 cells.; assay type: functional, organism-based; settings: Human alphaherpesvirus 3, MRC5
Please state the figure in µM; there is no need to write the unit.

- Nc1nc(O)c2ncn(CCC(CO)CO)c2n1: 78.7

-- ask For O=c1[nH]c(=O)n([C@H]2CC(O)C(CO)S2)cc1[N+](=O)[O-] (stereo not given in full) , write its IC50.
-- reply 13

-- ask For C#Cc1cn([C@H]2CC(O)C(CO)S2)c(=O)[nH]c1=O (stereo not given in full) , write its IC50.
-- reply 5.5

-- ask For O=c1[nH]c(=O)n(C2CC(O)C(CO)S2)cc1CCCl (stereo not given) , write its IC50.
-- reply 0.3

-- ask For O=c1[nH]c(=O)n([C@H]2CC(O)C(CO)S2)cc1CCF (stereo not given in full) , write its IC50.
-- reply 0.12

-- ask For C#CCc1cn([C@H]2CC(O)C(CO)S2)c(=O)[nH]c1=O (stereo not given in full) , write its IC50.
-- reply 1.4

* * *

Quick reference for IC50 among some compounds
tested on: Human betaherpesvirus 5; experiment: Inhibitory activity against human cytomegalovirus (HCMV) strain AD169 in MRC-5 cells.; assay type: functional, organism-based; conditions: Human betaherpesvirus 5, MRC5

Worked cases, IC50 given:
* C/C=C/c1cn([C@H]2CC(O)C(CO)S2)c(=O)[nH]c1=O (some centres undefined) | > 100 µM
* COc1cn(C2CC(O)C(CO)S2)c(=O)[nH]c1=O (centres undefined) | > 100 µM
* Nc1nc(O)c2ncn(CCC(CO)CO)c2n1 | > 100 µM

# evaluate next
-- ask For O=c1[nH]c(=O)n([C@H]2CC(O)C(CO)S2)cc1Br (some centres undefined) , write its IC50.
-- reply 0.44 µM

* * *

tested on: Human betaherpesvirus 5; assay: Inhibitory activity against human cytomegalovirus (HCMV) strain AD169 in MRC-5 cells.; format: functional, organism-based; conditions: Human betaherpesvirus 5, MRC5
pIC50: −log10 of the molar value.
readout_kind: pIC50

-- ask Report pIC50 from Human betaherpesvirus 5 testing of O=c1[nH]c(=O)n([C@H]2CC(O)C(CO)S2)cc1C(F)=C(Cl)Cl (stereo partly drawn)
-- reply < 4.00

-- ask Report pIC50 from Human betaherpesvirus 5 testing of CC(C)(C)c1cn([C@H]2CC(O)C(CO)S2)c(=O)[nH]c1=O (stereo partly drawn)
-- reply < 4.00

-- ask Report pIC50 from Human betaherpesvirus 5 testing of O=c1[nH]c(=O)n([C@H]2CC(O)C(CO)S2)cc1C=C(F)F (stereo partly drawn)
-- reply < 4.00

-- ask Report pIC50 from Human betaherpesvirus 5 testing of Nc1nc2c(ncn2COCCO)c(=O)[nH]1 [ACYCLOVIR]
-- reply < 4.07

-- ask Report pIC50 from Human betaherpesvirus 5 testing of O=c1[nH]c(=O)n([C@H]2CC(O)C(CO)S2)cc1C(F)(F)F (stereo partly drawn)
-- reply < 5.00

-- ask Report pIC50 from Human betaherpesvirus 5 testing of CCc1cn([C@H]2CC(O)C(CO)S2)c(=O)[nH]c1=O (stereo partly drawn)
-- reply 3.86

* * *

system: Human alphaherpesvirus 3; experiment: Inhibitory activity against varicella zoster virus (VZV) strain G31 in MRC-5 cells.; assay type: functional, organism-based; settings: Human alphaherpesvirus 3, MRC5
Quick reference for pIC50 among some compounds
Just the number, please; pIC50 means minus log10 of the concentration in mol/L.

- CCCc1cn([C@H]2CC(O)C(CO)S2)c(=O)[nH]c1=O (stereo partly drawn): 5.52

# evaluate next
-- ask Report pIC50 from Human alphaherpesvirus 3 testing of C/C=C/c1cn([C@H]2CC(O)C(CO)S2)c(=O)[nH]c1=O (stereo partly drawn)
-- reply 6.34
